normalized growth overview
Experimental Details: chemical genetic growth profiling, strain panel (AID 1159580);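 note: tested at 20 µM; growth read once vehicle control cultures reached saturation at 30 °C; 1 = growth at the plate median or of vehicle wells; lower values mean less growth of the strain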
Experimental Context: S. cerevisiae deletion strains, growth OD, locus YDR054C, strain cdc34, hits give low values
In all, about 5,500 compounds went through this assay and about 2,000 (36%) were called active. Another 18% or so got no clear call; they are omitted. Some of the results follow.
Kindly provide the number alone.

Ask | Provide one value: measured normalized growth of `Cc1cc(C(=O)O/N=C(/N)CSc2ncccc2C(F)(F)F)no1`
Reply | 0.989

Ask | # return recorded normalized growth for entry `CC(C)(C)c1csc(NNC(=O)c2ccc(Cl)cc2)n1`
Reply | 0.958

Ask | Output normalized growth of CCC(C)Cn1c(Sc2ncc([N+](=O)[O-])s2)n[nH]c1=O (stereo not given)
Reply | 0.825

Ask | Fill in normalized growth for record `O=C(CSCc1nc(-c2ccc(Cl)cc2)cs1)N/N=C\c1cccs1`
Reply | 0.97

Ask | Using known records, supply normalized growth for `N/C(CSc1ncccc1C(F)(F)F)=N/OC(=O)Nc1cccc(Cl)c1`
Reply | 0.987

Ask | Answer with the recorded normalized growth for the compound listed here: `CC(C)c1ccc(-c2cc(=O)c3ccccc3o2)cc1`
Reply | 0.917

Ask | Fill in reported normalized growth for this entry: `Cc1ccc(C(=O)O/N=C(/N)CSc2ncccc2C(F)(F)F)cc1`
Reply | 1.01

###

Measured normalized growth accompanies every entry in the list below.
Experimental Details: chemical genetic growth profiling, strain panel (AID 1159580)
Experimental Context: S. cerevisiae deletion strains, growth OD, locus YJL092W, strain hpr5, hits give low values
The campaign covered roughly 5,500 compounds. About 2,000 (36%) were called active. Another 18% or so got no clear call; they are omitted. This is one part of the list.
Just the number.

Before answering, review these 10 worked examples.
[[record]]
compound = "CC(C(=O)O)[C@H]1CCC2C3CC=C4C[C@@H](O)CC[C@]4(C)C3CC[C@@]21C (stereo partly specified)"
result_number = 1.02

[[record]]
compound = "COc1ccc(C(=O)/C=C/c2ccccc2)cc1"
result_number = 0.965

[[record]]
compound = "C[C@@H]1CC[C@@]2(OC1)OC1C(O)C3C4CC[C@H]5C[C@H](O[C@@H]6O[C@H](CO)[C@H](O[C@@H]7O[C@H](CO)[C@@H](O)[C@H](O[C@@H]8OC[C@@H](O)[C@H](O)[C@H]8O)[C@H]7O[C@@H]7O[C@H](CO)[C@H](O)[C@H](O[C@@H]8O[C@H](CO)[C@@H](O)[C@H](O)[C@H]8O)[C@H]7O)[C@H](O)[C@H]6O)[C@H](O)C[C@]5(C)C4CC[C@]3(C)C1[C@@H]2C (stereo partly specified)"
result_number = 1.01

[[record]]
compound = "Nc1nc(N)c2nc(-c3ccccc3)c(N)nc2n1"
result_number = 1.01

[[record]]
compound = "CC(=O)[C@H]1CCC2C3CC=C4C[C@@H](O)CC[C@]4(C)C3CC[C@@]21C (stereo partly specified)"
result_number = 0.97

[[record]]
compound = "CC(=O)OCC(=O)[C@@]1(O)CCC2C3CC[C@@H]4C[C@H](O)CC[C@]4(C)C3C(=O)C[C@@]21C (stereo partly specified)"
result_number = 1.01

[[record]]
compound = "COc1cccc(-c2cc(=O)c3ccc(OC)cc3o2)c1"
result_number = 0.954

[[record]]
compound = "CC(C)(C)C(=O)C(Oc1ccc(Cl)cc1)n1cncn1 (stereo unspecified)"
result_number = 0.177

[[record]]
compound = "COc1ccc(-c2cc(=O)c3ccccc3o2)cc1"
result_number = 0.884

[[record]]
compound = "CC(C)Oc1ccc2c(=O)cc(-c3ccccc3)oc2c1"
result_number = 0.928


Please find the next compound below.
Ask | For the compound `COc1cc2c3cc1Oc1cc(ccc1O)C[C@@H]1c4c(cc(OC)c(O)c4Oc4ccc(cc4)C[C@@H]3N(C)CC2)CC[N+]1(C)C` , give its measured normalized growth value.
Reply | 0.988

###

The entries below come with measured normalized growth values attached.
Experimental Details: chemical genetic growth profiling, strain panel (AID 1159580);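 note: tested at 20 µM; growth read once vehicle control cultures reached saturation at 30 °C; 1 = growth at the plate median or of vehicle wells; lower values mean less growth of the strain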
Experimental Context: S. cerevisiae deletion strains, growth OD, locus YDR069C, strain doa4, hits give low values
In all, about 5,500 compounds went through this assay and about 2,000 (36%) were called active. Another 18% or so got no clear call; they are omitted. The list shows a part of the results.
// return a plain number; no unit text

Below, each entry is followed by its recorded normalized growth result.
[[record]]
compound = "CC(=O)OCC(=O)[C@H]1CCC2C3CC=C4C[C@@H](O)CC[C@]4(C)C3CC[C@@]21C (stereo partly specified)"
assay_readout = "normalized growth"
result_number = 1.02

[[record]]
compound = "CN1CCN2c3ccccc3Cc3ccccc3C2C1 (stereo unspecified)"
assay_readout = "normalized growth"
result_number = 0.986

[[record]]
compound = "CCCN1C[C@H](CSC)C[C@@H]2c3cccc4[nH]cc(c34)C[C@H]21"
assay_readout = "normalized growth"
result_number = 0.994

[[record]]
compound = "CC(C(=O)O)[C@H]1CCC2C3CC=C4C[C@@H](O)CC[C@]4(C)C3CC[C@@]21C (stereo partly specified)"
assay_readout = "normalized growth"
result_number = 0.988

[[record]]
compound = "CCC(/C=C/[C@@H](C)[C@H]1CCC2C3CC=C4C[C@@H](O)CC[C@]4(C)C3CC[C@@]21C)C(C)C (stereo partly specified)"
assay_readout = "normalized growth"
result_number = 1.01


Ask | For the compound `COc1cc([C@@H]2c3cc4c(cc3[C@H](OC(C)=O)[C@H]3COC(=O)[C@H]23)OCO4)cc(OC)c1OC` , give its measured normalized growth value.
Reply | 1.02

###

Experimental Details: chemical genetic growth profiling, strain panel (AID 1159580);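 note: tested at 20 µM; growth read once vehicle control cultures reached saturation at 30 °C; 1 = growth at the plate median or of vehicle wells; lower values mean less growth of the strain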
Experimental Context: S. cerevisiae deletion strains, growth OD, locus YIL073C, strain SPO22, hits give low values
In all, about 5,500 compounds went through this assay and about 2,000 (36%) were called active. Another 18% or so got no clear call; they are omitted. This is one part of the list.
Assay Readout: normalized growth
Please respond with just the number, no unit label.

Examples with answers:
[[record]]
compound = "Cn1c(=O)c2[nH]c(C3CCCC3)nc2n(C)c1=O"
assay_readout = "normalized growth"
result_number = 1

[[record]]
compound = "C#CCOS(=O)OC1CCCCC1Oc1ccc(C(C)(C)C)cc1 (stereo unspecified)"
assay_readout = "normalized growth"
result_number = 1.01

[[record]]
compound = "O=C1c2c(O)ccc(O)c2C(=O)c2c(NCCNCCO)ccc(NCCNCCO)c21"
assay_readout = "normalized growth"
result_number = 0.917

[[record]]
compound = "CC(C)Oc1ccc2c(=O)cc(-c3ccccc3)oc2c1"
assay_readout = "normalized growth"
result_number = 0.921

[[record]]
compound = "CC1(C)O[C@@H]2CC3C4C[C@H](F)C5=CC(=O)C=C[C@]5(C)[C@@]4(F)[C@@H](O)C[C@]3(C)[C@]2(C(=O)CO)O1 (stereo partly specified)"
assay_readout = "normalized growth"
result_number = 1.02


Ask | Give normalized growth for `COc1ccc(-c2cc(=O)c3ccccc3o2)cc1OC`
Reply | 0.925

###

Experimental Details: chemical genetic growth profiling, strain panel (AID 1159580);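 note: tested at 20 µM; growth read once vehicle control cultures reached saturation at 30 °C; 1 = growth at the plate median or of vehicle wells; lower values mean less growth of the strain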
Experimental Context: S. cerevisiae deletion strains, growth OD, locus YLR320W, strain mms22, hits give low values
Out of some 5,500 compounds screened, about 2,000 (36%) were called active. About 18% were inconclusive and are not listed. The list shows a part of the results.
As shown below, each of these molecules has a reported normalized growth value.
Reply with just the number.

[[record]]
molecule = "COc1cc2c(cc1OC)-c1cc3ccc(OC)c(OC)c3c[n+]1CC2"
result_number = 0.997


Ask | For the molecule `COc1cc2cc[n+]3cc4c(OC)c(OC)ccc4cc3c2cc1OC` , give its measured normalized growth value.
Reply | 0.979

Ask | Identify measured normalized growth associated with CC(=O)O[C@H]1C[C@H](O[C@H]2[C@@H](O)C[C@H](O[C@H]3[C@@H](O)C[C@H](O[C@H]4CC[C@@]5(C)C(CCC6C5C[C@@H](O)[C@]5(C)[C@@H](C7=CC(=O)OC7)CC[C@]65O)C4)O[C@@H]3C)O[C@@H]2C)O[C@H](C)[C@H]1O[C@@H]1O[C@H](CO)[C@@H](O)[C@H](O)[C@H]1O (stereo partly drawn)
Reply | 0.999

Ask | Identify measured normalized growth associated with CC1(C)O[C@@H]2CC3C4C[C@H](F)C5=CC(=O)C=CC5(C)C4C(O)CC3(C)[C@]2(C(=O)CO)O1 (stereo partly drawn)
Reply | 0.981

Ask | Input `CC(=O)Oc1c(-c2ccccc2)oc2c(CC=C(C)C)c3c(c(OC(C)=O)c2c1=O)C=CC(C)(C)O3` , output reported normalized growth.
Reply | 0.999

Ask | Fill in normalized growth for record CC(=O)O[C@@H]1CC2C(C)(C)[C@H](O)C[C@H](O)[C@]2(C)C2CC[C@@]3(C)[C@H](c4ccoc4)OC(=O)[C@H]4O[C@]43[C@@]21C (stereo partly drawn)
Reply | 0.986

Ask | Please supply the value of reported normalized growth for the item CC(=O)O[C@@H]1CC2C(C)(C)CCC(=O)[C@]2(C)C2CC[C@@]3(C)[C@H](c4ccoc4)OC(=O)C4OC43[C@@]21C (stereo partly drawn)
Reply | 1.01
